Please consider the recorded Ki for histamine-3 receptors (H3 receptor) (Rattus norvegicus) in what follows.
Could you give me the number in nM? Just the number is fine.

Q) Name the recorded Ki for COc1ccccc1-c1ccc2oc(CCN3CCC[C@H]3C)cc2c1 .
A) 66

* * *

Here's a batch of compounds along with measured pKi for histamine-3 receptors (H3 receptor) (Rattus norvegicus, UniProt Q9QYN8).
Recall that pKi is obtained by taking minus log10 of the concentration measured in molar.

Q) // lookup pKi for C[C@@H]1CCCN1CCc1cc2cc(-c3ccc(C#N)c(F)c3)ccc2o1
A) 8.05

Q) Entry to check: C[C@@H]1CCCN1CCc1oc2ccc(-c3ccc(C#N)cc3)cc2c1Cl [Example 156A]
A) 8.43

Q) // query: C[C@@H]1CCCN1CCc1cc2cc(-c3noc(Cc4ccc(F)cc4)n3)ccc2o1
A) 8.00

Q) Next up: C[C@@H]1CCCN1CCc1oc2ccc(-c3ccc(C#N)cc3)cc2c1I
A) 8.08

* * *

Record: Ki reported on histamine-3 receptors (H3 receptor) (Rattus norvegicus).
Sequence (Q9QYN8 whole entry): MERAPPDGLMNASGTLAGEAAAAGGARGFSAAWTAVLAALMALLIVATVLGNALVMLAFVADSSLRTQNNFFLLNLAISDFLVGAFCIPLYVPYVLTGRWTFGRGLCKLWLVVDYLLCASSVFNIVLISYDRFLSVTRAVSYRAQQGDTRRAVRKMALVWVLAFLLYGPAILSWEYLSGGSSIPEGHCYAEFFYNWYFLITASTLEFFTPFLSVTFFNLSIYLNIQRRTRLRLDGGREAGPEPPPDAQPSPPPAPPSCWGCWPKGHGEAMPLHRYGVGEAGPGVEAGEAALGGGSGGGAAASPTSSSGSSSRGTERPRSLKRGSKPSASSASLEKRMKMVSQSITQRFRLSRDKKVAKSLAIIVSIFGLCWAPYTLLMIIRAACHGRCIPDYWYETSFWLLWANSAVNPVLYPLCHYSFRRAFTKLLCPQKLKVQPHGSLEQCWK
Just the number in nM, nothing appended.

Reference set (5 entries):
- Molecule: "C[C@@H]1CCCN1CCc1cc2cc(-c3noc(-c4ccc(C#N)cc4)n3)ccc2o1 [Example 88]"
  Ki [nM]: 64
- Molecule: "C[C@@H]1CCCN1CCc1cc2cc(-c3ccc(Cl)c(Cl)c3)ccc2o1 [Example 114]"
  Ki [nM]: 97
- Molecule: "C[C@@H]1CCCN1CCc1oc2ccc(-c3ccc(C#N)cc3)cc2c1-c1cccnc1 [Example 103]"
  Ki [nM]: 13
- Molecule: "C[C@@H]1CCCN1CCc1cc2cc(-c3ccc(CO)cc3)ccc2o1 [Example 133]"
  Ki [nM]: 6.4
- Molecule: "C[C@@H]1CCCN1CCc1cc2cc(-c3noc(-c4ccc(F)cc4)n3)ccc2o1 [Example 95]"
  Ki [nM]: 12

Next:
Q) Need Ki of Cc1nc(-c2ccc3oc(CCN4CCC[C@H]4C)cc3c2)no1 [Example 100] , thanks.
A) 6

* * *

# pKi per entry for histamine-3 receptors (H3 receptor) (Rattus norvegicus)
Please note pKi is a logarithmic value: minus log10 of concentration in mol/L. Answer with that number alone.

Observe how each entry below is paired with its result.
- Compound: "C[C@@H]1CCCN1CCc1oc2cc(Cl)c(-c3ccc(C#N)cc3)cc2c1Cl [Example 156B]"
  Assayed Target: "histamine-3 receptors (H3 receptor) (Rattus norvegicus)"
  pKi: 8.01
- Compound: "CC(=O)c1c(CCN2CCC[C@H]2C)oc2ccc(-c3ccc(C#N)cc3)cc12 [Example 159]"
  Assayed Target: "histamine-3 receptors (H3 receptor) (Rattus norvegicus)"
  pKi: 7.85
- Compound: "C[C@@H]1CCCN1CCc1cc2cc(-c3ccc(C(=O)C4CC4)cc3)ccc2o1 [Example 160]"
  Assayed Target: "histamine-3 receptors (H3 receptor) (Rattus norvegicus)"
  pKi: 8.12

# ---- query compound ----
Q) Which pKi value belongs to C[C@@H]1CCCN1CCc1cc2cc(-c3ccc(C(F)(F)F)cc3)ccc2o1 [Example 127] ?
A) 6.92

Data credit: patent US6969730B2
